Recorded measurements of melting point, one per entry

[
  {
    "compound": "N#Cn1c(N)nc2ccccc21",
    "melting point": "175 to 177 °C"
  },
  {
    "compound": "O=C(O)CCCCc1ccc(F)cc1",
    "melting point": "74 °C"
  },
  {
    "compound": "CCOC(=O)c1ccccc1",
    "melting point": "-34 °C"
  }
]

Req: Name the recorded melting point of the compound listed here: N#CC(=CN)S(=O)(=O)c1ccc(Cl)cc1
Resp: 213 to 214 °C

Req: For N#Cc1ccc(CN2CCOCC2)cc1 , write its melting point.
Resp: 86 to 87 °C

Req: Hello, please tell me recorded melting point for this one: NC(Cc1ccc(F)c(F)c1)C(=O)O (racemic)
Resp: 237 to 240 °C

Req: Please report the measured melting point for NC(CCCCCC(=O)O)C(=O)O (racemic)
Resp: 223 to 225 °C
